biological target: Recombinant human ENPP1 protein (Homo sapiens (Human), UniProt P22413); test: ENPP1 cGAMP Biochemical Assay; settings: 0.5 nM ENPP1, 1000 nM 2′3′-cGAMP substrate, TR-FRET
Sequence (P22413 whole entry): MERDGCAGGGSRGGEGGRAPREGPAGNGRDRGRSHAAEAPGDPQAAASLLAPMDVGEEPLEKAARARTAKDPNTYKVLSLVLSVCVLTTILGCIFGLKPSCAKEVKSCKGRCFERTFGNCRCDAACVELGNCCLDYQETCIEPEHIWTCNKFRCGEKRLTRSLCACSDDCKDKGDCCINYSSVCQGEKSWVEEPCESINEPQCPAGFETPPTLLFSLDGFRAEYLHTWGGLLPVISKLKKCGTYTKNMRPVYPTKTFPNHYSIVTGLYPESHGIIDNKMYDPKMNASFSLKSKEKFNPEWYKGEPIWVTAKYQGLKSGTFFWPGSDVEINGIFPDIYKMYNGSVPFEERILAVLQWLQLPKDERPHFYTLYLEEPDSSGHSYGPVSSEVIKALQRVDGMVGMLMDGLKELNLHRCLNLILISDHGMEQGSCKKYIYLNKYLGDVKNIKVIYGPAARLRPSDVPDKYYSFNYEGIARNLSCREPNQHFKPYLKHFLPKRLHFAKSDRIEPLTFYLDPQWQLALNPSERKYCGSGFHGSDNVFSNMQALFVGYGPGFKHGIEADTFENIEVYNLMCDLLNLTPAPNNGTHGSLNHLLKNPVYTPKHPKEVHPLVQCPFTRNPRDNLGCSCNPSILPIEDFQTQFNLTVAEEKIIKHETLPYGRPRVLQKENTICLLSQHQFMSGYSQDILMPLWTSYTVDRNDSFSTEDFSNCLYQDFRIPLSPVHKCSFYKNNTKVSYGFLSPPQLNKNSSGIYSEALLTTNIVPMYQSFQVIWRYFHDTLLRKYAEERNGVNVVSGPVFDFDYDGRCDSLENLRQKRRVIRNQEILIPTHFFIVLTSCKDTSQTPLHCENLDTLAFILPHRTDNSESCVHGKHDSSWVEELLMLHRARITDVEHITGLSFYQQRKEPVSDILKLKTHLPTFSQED
Experimental Readout: IC50

Qu. Lab note: record IC50 of CCn1nc(Cl)c2c(Nc3ccc(S(N)(=O)=NC#N)cc3)ccnc21 (stereo not drawn) tested on Recombinant human ENPP1 protein (Homo sapiens (Human), UniProt P22413).
Ans. 10 to 100 nM

Qu. Specify IC50 for CCn1nc(Cl)c2c(NCC3CCN([S@](C)(=N)=O)CC3)ccnc21 [Compound 13H] , system Recombinant human ENPP1 protein (Homo sapiens (Human), UniProt P22413).
Ans. 10 to 100 nM

Qu. Recall the reported IC50 of C#CCn1nc(Cl)c2c(NCc3c(F)cc(S(N)(=O)=NC)cc3F)ccnc21 (stereo not drawn) when tested on Recombinant human ENPP1 protein (Homo sapiens (Human), UniProt P22413).
Ans. < 10 nM

Qu. Report value: IC50, system: Recombinant human ENPP1 protein (Homo sapiens (Human), UniProt P22413), compound: CCn1nc(Cl)c2c(NCC3CCN(S(=N)(N)=O)CC3)ccnc21 (stereo not drawn)
Ans. 10 to 100 nM

Qu. # lookup: Recombinant human ENPP1 protein (Homo sapiens (Human), UniProt P22413) IC50, key = `C#CCn1nc(Cl)c2c(N(C)Cc3ccc([S@](C)(=N)=O)cc3)ccnc21`
Ans. < 10 nM

Qu. Give IC50 only, for C#CCn1nc(Cl)c2c(NCc3ccc(S(=N)(=O)NC)cc3)ccnc21 (stereo in doubt) [Compound 10C] , using Recombinant human ENPP1 protein (Homo sapiens (Human), UniProt P22413) data.
Ans. < 10 nM

Qu. Return reported IC50 for target or system Recombinant human ENPP1 protein (Homo sapiens (Human), UniProt P22413), item CCn1ncc2c(NCc3ccc(S(=N)(N)=O)cc3)ccnc21 (stereo not drawn) .
Ans. 10 to 100 nM

Qu. Determine reported IC50 for C#CCn1nc(Cl)c2c(NCC3CCN([S@](C)(=N)=O)CC3)ccnc21 [Compound 13B] ; test system: Recombinant human ENPP1 protein (Homo sapiens (Human), UniProt P22413).
Ans. < 10 nM

Qu. Find IC50 for CCn1nc(Cl)c2c(NCC3CCN([S@](=N)(=O)CCOC)CC3)ccnc21 [Compound 14D] on Recombinant human ENPP1 protein (Homo sapiens (Human), UniProt P22413) and write it down.
Ans. 10 to 100 nM

Qu. Specify IC50 for N#CCn1nc(Cl)c2c(NCC3CCN([S@](N)(=O)=NC#N)CC3)ccnc21 [Compound 15F] , system Recombinant human ENPP1 protein (Homo sapiens (Human), UniProt P22413).
Ans. < 10 nM

Qu. Recall the reported IC50 of C#CCn1nc(Cl)c2c(NCc3ccc(S(=N)(N)=O)cc3)ccnc21 (stereo not drawn) [Compound 11A] when tested on Recombinant human ENPP1 protein (Homo sapiens (Human), UniProt P22413).
Ans. < 10 nM

Qu. For Recombinant human ENPP1 protein (Homo sapiens (Human), UniProt P22413), give IC50 of the listed compound: CCn1nc(Cl)c2c(NCc3ccc(S(N)(=O)=NCC(F)(F)F)cc3)ccnc21 (stereo not drawn) [Compound 12E]
Ans. 10 to 100 nM
